tested on: HTelo (DNA, G4) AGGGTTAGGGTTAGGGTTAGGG; experiment: emission titration (580 nm); details: K+ 100 mM; lithium cacodylate pH 7.3
Quick reference for Ka among some compounds

Worked cases, answers included:
- CN(C)CCOc1c[c-]c(-c2cccc(-c3ccccn3)n2)cc1.[Cl-].[Pt+2]: 10.45 ± 1.13 x 10^5 M^-1
- OCC[S-].[Pt+2].[c-]1cc(OCCN2CCOCC2)ccc1-c1cccc(-c2ccccn2)n1: 3.92 ± 0.13 x 10^5 M^-1
- CN(C)CCOc1c[c-]c(-c2cccc(-c3ccccn3)n2)cc1.OCC[S-].[Pt+2]: 12.5 ± 0.30 x 10^5 M^-1

Ka measured on `[Cl-].[Pt+2].[c-]1cc(OCCN2CCOCC2)ccc1-c1cccc(-c2ccccn2)n1` = 2.95 ± 0.34 x 10^5 M^-1

Ka measured on `OCC[S-].[Pt+2].[c-]1cc(OCCN2CCCCC2)ccc1-c1cccc(-c2ccccn2)n1` = 4.85 ± 0.66 x 10^5 M^-1

----------
system: HTelo (DNA, G4) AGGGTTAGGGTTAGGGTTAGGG; assay: emission titration (580 nm); settings: Na+ 100 mM; lithium cacodylate pH 7.3
endpoint name: Ka

- [Cl-].[Pt+2].[c-]1cc(OCCN2CCOCC2)ccc1-c1cccc(-c2ccccn2)n1: 1.47 ± 0.08 x 10^5 M^-1

Ka measured on `OCC[S-].[Pt+2].[c-]1cc(OCCN2CCOCC2)ccc1-c1cccc(-c2ccccn2)n1` = 1.46 ± 0.05 x 10^5 M^-1

Ka measured on `OCC[S-].[Pt+2].[c-]1cc(OCCN2CCCCC2)ccc1-c1cccc(-c2ccccn2)n1` = 4.5 ± 1.54 x 10^5 M^-1

Ka measured on `CN(C)CCOc1c[c-]c(-c2cccc(-c3ccccn3)n2)cc1.[Cl-].[Pt+2]` = 6.22 ± 0.34 x 10^5 M^-1

Ka measured on `CN(C)CCOc1c[c-]c(-c2cccc(-c3ccccn3)n2)cc1.OCC[S-].[Pt+2]` = 3.5 ± 1.01 x 10^5 M^-1

----------
Quick reference for Ka among some compounds
tested on: c-Myc (DNA, G4) TGAGGGTGGGTAGGGTGGGTAA; test: emission titration (580 nm); conditions: K+ 100 mM; lithium cacodylate pH 7.3

- [Cl-].[Pt+2].[c-]1cc(OCCN2CCOCC2)ccc1-c1cccc(-c2ccccn2)n1: 13.68 ± 1.56 x 10^5 M^-1
- OCC[S-].[Pt+2].[c-]1cc(OCCN2CCOCC2)ccc1-c1cccc(-c2ccccn2)n1: 6.09 ± 0.91 x 10^5 M^-1
- CN(C)CCOc1c[c-]c(-c2cccc(-c3ccccn3)n2)cc1.[Cl-].[Pt+2]: 17.61 ± 2.87 x 10^5 M^-1
- OCC[S-].[Pt+2].[c-]1cc(OCCN2CCCCC2)ccc1-c1cccc(-c2ccccn2)n1: 15.04 ± 1.18 x 10^5 M^-1

Ka measured on `CN(C)CCOc1c[c-]c(-c2cccc(-c3ccccn3)n2)cc1.OCC[S-].[Pt+2]` = 14.43 ± 7.18 x 10^5 M^-1

----------
Quick reference for Ka among some compounds
tested on: HTG4 (DNA, G4) TTGGGTTAGGGTTAGGGTTAGGGA; assay: emission titration (580 nm); details: K+ 100 mM; lithium cacodylate pH 7.3

* CN(C)CCOc1c[c-]c(-c2cccc(-c3ccccn3)n2)cc1.OCC[S-].[Pt+2] | 22.04 ± 9.23 x 10^5 M^-1
* OCC[S-].[Pt+2].[c-]1cc(OCCN2CCOCC2)ccc1-c1cccc(-c2ccccn2)n1 | 4.45 ± 0.58 x 10^5 M^-1
* OCC[S-].[Pt+2].[c-]1cc(OCCN2CCCCC2)ccc1-c1cccc(-c2ccccn2)n1 | 16.35 ± 2.30 x 10^5 M^-1
* [Cl-].[Pt+2].[c-]1cc(OCCN2CCOCC2)ccc1-c1cccc(-c2ccccn2)n1 | 3.55 ± 0.92 x 10^5 M^-1

Attention now turns to another entry.
Ka measured on `CN(C)CCOc1c[c-]c(-c2cccc(-c3ccccn3)n2)cc1.[Cl-].[Pt+2]` = 14.89 ± 4.37 x 10^5 M^-1

The reported numbers originate from paper PMC10952342.
